Entries and their measured one-hybrid fitness for binding NBS DNA follow.
B1: Caulobacter ParB omega fusion; a variant is named by its letters at X, in order, B8GW30 (parent)
chain: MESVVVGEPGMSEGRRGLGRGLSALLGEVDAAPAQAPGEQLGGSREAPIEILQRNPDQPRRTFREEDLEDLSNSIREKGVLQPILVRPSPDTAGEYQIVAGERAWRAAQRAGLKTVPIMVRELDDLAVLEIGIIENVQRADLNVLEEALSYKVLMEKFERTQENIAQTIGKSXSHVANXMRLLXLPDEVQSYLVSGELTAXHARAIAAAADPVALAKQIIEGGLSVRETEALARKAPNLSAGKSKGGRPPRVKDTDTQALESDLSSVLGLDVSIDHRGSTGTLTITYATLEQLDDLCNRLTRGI

# Variants of: B1
# experimental-details: one-hybrid fitness for binding NBS DNA (the Noc-binding site; scaled: cognate 1, non-cognate 0); higher = stronger binding
# applied-conditions: with NBS DNA site
The full ranking holds about 81,000 sequences; the median of “one-hybrid fitness for binding NBS DNA” is about -0.1, and the highest 2% start at about 0.36. The list comes from a sample in which the highest values are over-represented; it also holds close analogues and randomly drawn sequences.
Give only the figure.

Some variants with known one-hybrid fitness for binding NBS DNA results, for comparison:
• QMQY = 0.223
• QMGT = 0.447

// query Supply recorded one-hybrid fitness for binding NBS DNA for QMIT here.
// result 0.402

Where do the numbers come from? From a collection of fitness landscapes (doi:10.1016/j.celrep.2020.107928).
